# Tested on: SB.mhdgc-1
# experimentDescription: area under the dose-response curve of % viability (trapezoidal, 11 doses) (% viability x log10 concentration); higher = less cytotoxic
# details: SB.mhdgc-1 (hereditary c.1380delA CDH1 gastric cancer)

| molecule | area under the dose-response curve |
| --- | --- |
| CCOC(=O)C(C)(C)Oc1ccc(Cl)cc1 [Clofibrate] (top concentration 46.0829 µM) | 543 |
| COC1=CC=C(C(=C1)OC(C)C)C/2=N/[C@@H]([C@@H](N2C(=O)N3CCNC(=O)C3)C4=CC=C(Cl)C=C4)C5=CC=C(Cl)C=C5 [Nutlin-3] (top concentration 46.0829 µM) | 386 |
| NC(=O)NO [Hydroxyurea] (top concentration 46.0829 µM) | 409 |
| N#C/N=C(\NCCCCCCOc1ccc(Cl)cc1)Nc1ccncc1 [GMX-1778] (top concentration 46.0829 µM) | 260 |
| CC[C@H](C)C(=O)O[C@H]1C[C@@H](C)\C=C2\C=C/[C@H](C)[C@H](CC[C@@H]3C[C@@H](O)CC(=O)O3)[C@@H]12 [Lovastatin] (top concentration 46.0829 µM) | 460 |
| CC[C@@H]1C(=O)N(C)c2cnc(Nc3ccc(C(=O)NC4CCN(C)CC4)cc3OC)nc2N1C1CCCC1 [BI-2536] (top concentration 46.0829 µM) | 387 |
